Test system: 596521-263-R-J1-PDC complex spheroid growth
Test summary: Anticancer human tumor 596521-263-R-J1-PDC patient-derived soft tissue sarcoma cell line growth inhibition [Asc]
Reported conditions: second compound 3.16 µM; first compound 0.0316 µM; stronger effect = lower value
Measure name: viability, T/C (%)
Give just the number in %; leave the unit off.

(Q) Any idea what its viability, T/C is? The compound is C=CC(=O)N1CCN(c2nc(=O)n(-c3c(C)ccnc3C(C)C)c3nc(-c4c(O)cccc4F)c(F)cc23)C(C)C1 (centres undefined) + Cc1c(S(C)(=O)=O)c(-c2cc(F)cc(N3CCN(c4ccc(NS(=O)(=O)c5ccc(NC(CCN6CCC(C(=O)OCCCP(=O)(O)O)CC6)CSc6ccccc6)c(S(=O)(=O)C(F)(F)F)c5)cc4)CC3)c2)c(-c2ccc(Cl)cc2)n1C(C)C
(A) 66.6

(Q) For O=C(c1ccc(F)c(F)c1Nc1ccc(I)cc1F)N1CC(O)([C@@H]2CCCCN2)C1 + Cc1c(S(C)(=O)=O)c(-c2cc(F)cc(N3CCN(c4ccc(NS(=O)(=O)c5ccc(NC(CCN6CCC(C(=O)OCCCP(=O)(O)O)CC6)CSc6ccccc6)c(S(=O)(=O)C(F)(F)F)c5)cc4)CC3)c2)c(-c2ccc(Cl)cc2)n1C(C)C then?
(A) 62.2

(Q) For CCN1CCN(Cc2ccc(Nc3ncc(F)c(-c4cc(F)c5nc(C)n(C(C)C)c5c4)n3)nc2)CC1 + Cc1c(S(C)(=O)=O)c(-c2cc(F)cc(N3CCN(c4ccc(NS(=O)(=O)c5ccc(NC(CCN6CCC(C(=O)OCCCP(=O)(O)O)CC6)CSc6ccccc6)c(S(=O)(=O)C(F)(F)F)c5)cc4)CC3)c2)c(-c2ccc(Cl)cc2)n1C(C)C then?
(A) 63.3

(Q) For CNC(C)C(=O)NC1CN(S(=O)(=O)c2cccc(S(=O)(=O)N3CCC4CCC(C(=O)NC(c5ccccc5)c5ccccc5)N4C(=O)C(NC(=O)C(C)NC)C3)c2)CCC2CCC(C(=O)NC(c3ccccc3)c3ccccc3)N2C1=O (centres undefined) + Cc1c(S(C)(=O)=O)c(-c2cc(F)cc(N3CCN(c4ccc(NS(=O)(=O)c5ccc(NC(CCN6CCC(C(=O)OCCCP(=O)(O)O)CC6)CSc6ccccc6)c(S(=O)(=O)C(F)(F)F)c5)cc4)CC3)c2)c(-c2ccc(Cl)cc2)n1C(C)C then?
(A) 51.8

* * *

Entries and their measured viability, T/C follow.
System: 596521-263-R-J1-PDC complex spheroid growth
Test summary: Anticancer human tumor 596521-263-R-J1-PDC cell line growth inhibition [Asc];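 also: spheroids exposed to compounds for 7 days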
Reported conditions: second compound 0.0316 µM; first compound 0.00949 µM; stronger effect = lower value
Source text: Multicellular complex tumor spheroid response to apoptosis pathway targeting inhibitors Alrizomadlin, Pelcitoclax, and Dasminapant in combination with a variety of drugs and investigational agents in selected tumor cell lines […] Compounds. […] If the clinical Cmax for an agent had not been determined, the highest concentration tested was 10 microM. […]
Give just the number in %; leave the unit off.

Use these answered entries as a reference point.
(Q) So what viability, T/C did Cc1nc(N2CCC3(CC2)COC(C)C3N)c(CO)nc1Sc1ccnc(N)c1Cl (stereo not given) + CNC(C)C(=O)NC1CN(S(=O)(=O)c2cccc(S(=O)(=O)N3CCC4CCC(C(=O)NC(c5ccccc5)c5ccccc5)N4C(=O)C(NC(=O)C(C)NC)C3)c2)CCC2CCC(C(=O)NC(c3ccccc3)c3ccccc3)N2C1=O get with 596521-263-R-J1-PDC complex spheroid growth?
(A) 102

(Q) For Cc1nc(N2CCC3(CC2)COC(C)C3N)c(CO)nc1Sc1ccnc(N)c1Cl (stereo not given) + Cc1c(S(C)(=O)=O)c(-c2cc(F)cc(N3CCN(c4ccc(NS(=O)(=O)c5ccc(NC(CCN6CCC(C(=O)OCCCP(=O)(O)O)CC6)CSc6ccccc6)c(S(=O)(=O)C(F)(F)F)c5)cc4)CC3)c2)c(-c2ccc(Cl)cc2)n1C(C)C then?
(A) 85.5

(Q) For NC(=O)C(=Cn1cnc(-c2cc(C(F)(F)F)cc(C(F)(F)F)c2)n1)c1cncnc1 + CNC(C)C(=O)NC1CN(S(=O)(=O)c2cccc(S(=O)(=O)N3CCC4CCC(C(=O)NC(c5ccccc5)c5ccccc5)N4C(=O)C(NC(=O)C(C)NC)C3)c2)CCC2CCC(C(=O)NC(c3ccccc3)c3ccccc3)N2C1=O then?
(A) 75.8

(Q) For NC(=O)C(=Cn1cnc(-c2cc(C(F)(F)F)cc(C(F)(F)F)c2)n1)c1cncnc1 + Cc1c(S(C)(=O)=O)c(-c2cc(F)cc(N3CCN(c4ccc(NS(=O)(=O)c5ccc(NC(CCN6CCC(C(=O)OCCCP(=O)(O)O)CC6)CSc6ccccc6)c(S(=O)(=O)C(F)(F)F)c5)cc4)CC3)c2)c(-c2ccc(Cl)cc2)n1C(C)C then?
(A) 80.7

# evaluate next
(Q) So what viability, T/C did CCN1C(C(=O)NC23CCC(C(=O)O)(CC2)CC3)C(c2cccc(Cl)c2F)C2(C(=O)Nc3cc(Cl)ccc32)C12CCCCC2 (stereo not given) + Cc1c(S(C)(=O)=O)c(-c2cc(F)cc(N3CCN(c4ccc(NS(=O)(=O)c5ccc(NC(CCN6CCC(C(=O)OCCCP(=O)(O)O)CC6)CSc6ccccc6)c(S(=O)(=O)C(F)(F)F)c5)cc4)CC3)c2)c(-c2ccc(Cl)cc2)n1C(C)C get with 596521-263-R-J1-PDC complex spheroid growth?
(A) 94.6

* * *

Test system: 596521-263-R-J1-PDC complex spheroid growth
Test summary: Anticancer human tumor 596521-263-R-J1-PDC cell line growth inhibition [Asc]; active = viability on the fitted dose curve at most 10% of control; inactive = the rest;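 also: spheroids exposed to compounds for 7 days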
Reported conditions: second compound 1 µM; first compound 10 µM
Can you answer with just one of these options? 1 for active, 0 for inactive

(Q) How was C=C(F)C(=O)N1CCN(c2nc(OCC3CCCN3C)nc3c2CCN(c2cccc4cccc(Cl)c24)C3)CC1CC#N (configuration not stated) + Cc1c(S(C)(=O)=O)c(-c2cc(F)cc(N3CCN(c4ccc(NS(=O)(=O)c5ccc(NC(CCN6CCC(C(=O)OCCCP(=O)(O)O)CC6)CSc6ccccc6)c(S(=O)(=O)C(F)(F)F)c5)cc4)CC3)c2)c(-c2ccc(Cl)cc2)n1C(C)C classified in this test?
(A) 1

Continue with the next compound.
(Q) How was C=CC(=O)N1CCN(c2nc(=O)n(-c3c(C)ccnc3C(C)C)c3nc(-c4c(O)cccc4F)c(F)cc23)C(C)C1 (configuration not stated) + Cc1c(S(C)(=O)=O)c(-c2cc(F)cc(N3CCN(c4ccc(NS(=O)(=O)c5ccc(NC(CCN6CCC(C(=O)OCCCP(=O)(O)O)CC6)CSc6ccccc6)c(S(=O)(=O)C(F)(F)F)c5)cc4)CC3)c2)c(-c2ccc(Cl)cc2)n1C(C)C classified in this test?
(A) 0

* * *

System: 596521-263-R-J1-PDC complex spheroid growth
Test summary: Anticancer human tumor 596521-263-R-J1-PDC cell line growth inhibition [Asc];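 also: spheroids exposed to compounds for 7 days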
Reported conditions: second compound 1 µM; first compound 0.1 µM; stronger effect = lower value
Entries and their measured viability, T/C follow.
Give just the number in %; leave the unit off.

(Q) Any idea what its viability, T/C is? The compound is COc1c(OCCCN2CCOCC2)ccc2c3n(c(=NC(=O)c4cnc(N)nc4)nc12)CCN3 + Cc1c(S(C)(=O)=O)c(-c2cc(F)cc(N3CCN(c4ccc(NS(=O)(=O)c5ccc(NC(CCN6CCC(C(=O)OCCCP(=O)(O)O)CC6)CSc6ccccc6)c(S(=O)(=O)C(F)(F)F)c5)cc4)CC3)c2)c(-c2ccc(Cl)cc2)n1C(C)C
(A) 47

(Q) For NC1CCC(NC2CC2c2ccccc2)CC1 (centres undefined) + Cc1c(S(C)(=O)=O)c(-c2cc(F)cc(N3CCN(c4ccc(NS(=O)(=O)c5ccc(NC(CCN6CCC(C(=O)OCCCP(=O)(O)O)CC6)CSc6ccccc6)c(S(=O)(=O)C(F)(F)F)c5)cc4)CC3)c2)c(-c2ccc(Cl)cc2)n1C(C)C then?
(A) 74.1

(Q) For Cn1ncnc1[C@H]1c2n[nH]c(=O)c3cc(F)cc(c23)N[C@@H]1c1ccc(F)cc1 + Cc1c(S(C)(=O)=O)c(-c2cc(F)cc(N3CCN(c4ccc(NS(=O)(=O)c5ccc(NC(CCN6CCC(C(=O)OCCCP(=O)(O)O)CC6)CSc6ccccc6)c(S(=O)(=O)C(F)(F)F)c5)cc4)CC3)c2)c(-c2ccc(Cl)cc2)n1C(C)C then?
(A) 61.1

---
(Q) Any idea what its viability, T/C is? The compound is O=C(c1ccc(F)c(F)c1Nc1ccc(I)cc1F)N1CC(O)([C@@H]2CCCCN2)C1 + Cc1c(S(C)(=O)=O)c(-c2cc(F)cc(N3CCN(c4ccc(NS(=O)(=O)c5ccc(NC(CCN6CCC(C(=O)OCCCP(=O)(O)O)CC6)CSc6ccccc6)c(S(=O)(=O)C(F)(F)F)c5)cc4)CC3)c2)c(-c2ccc(Cl)cc2)n1C(C)C
(A) 66.3

Reference for the values: PubChem BioAssay AID1963449
